Give measured IC50 for each item. Keep answers brief.
Molecular target: human PAD4 (Homo sapiens (Human))
Assay: In Vitro PAD4 BAEE Biochemical Assay
Details: human PAD4, BAEE substrate; 5 nM PAD4, 2 mM calcium chloride, 3 mM BAEE; geometric mean of multiple experiments
Enter the number, and then the unit.

Reported IC50 of `COc1cc(C(=O)N2[C@H]3CC[C@@H]2[C@H](N)C3)cc2nc(-c3cc4ccc([C@@H](C)NS(=O)(=O)c5ccc(F)cc5)nc4n3CC3CC3)n(C)c12` : 107 nM

Reported IC50 of `COc1cc(C(=O)N2C[C@H](N)CC[C@@H]2C)cc2nc(-c3cc4ccc(-c5ccc6nnnn6c5C)nc4n3CC3CC3)n(C)c12` : 658 nM

Reported IC50 of `COc1cc(C(=O)N2C[C@H](N)CC[C@@H]2C)cc2nc(-c3cc4ccc(-n5c(C)cccc5=O)nc4n3CC3CC3)n(C)c12` : 146 nM

Reported IC50 of COc1cc(C(=O)N2CCCC3(CCCN3)C2)cc2nc(-c3cc4ccc(N(C(F)F)S(C)(=O)=O)nc4n3CC3CC3)n(C)c12 (stereo not drawn) : 50000 nM

Reported IC50 of `COc1cc(C(=O)N2C[C@H](N)CCN2C)cc2nc(-c3cc4ccc([C@@H](C)NC(=O)c5c(F)cccc5C(F)(F)F)nc4n3CC3CC3)n(C)c12` : 166 nM

Reported IC50 of COc1cc(C(=O)N[C@@H]2CNC[C@H]2NC(=O)/C=C/CN(C)C)cc2nc(-c3cc4ccc(N(C(F)F)S(C)(=O)=O)nc4n3CC3CC3)n(C)c12 (stereo in doubt) : 490 nM

Reported IC50 of `COc1cc(C(=O)N2[C@H]3CC[C@@H]2[C@H](N)C3)cc2nc(-c3cc4ccc([C@H]5CCCN5C(=O)C(C)(C)C)nc4n3CC3CC3)n(C)c12` : 48.4 nM

Reported IC50 of COc1cc(C(=O)N2C[C@H](N)CC[C@@H]2C)cc2nc(-c3cc4ccc(N5C(=O)CCC5C)nc4n3CC3CC3)n(C)c12 (stereo partly drawn) : 531 nM

Reported IC50 of `CNC(=O)c1ccc2cc(-c3nc4cc(C(=O)N5C[C@H](N)CC[C@@H]5C)cc(OC)c4n3C)n(CC3CC3)c2n1` : 1720 nM

Reported IC50 of `COc1cc(C(=O)N2CCC[C@@H](N)C2)cc2nc(-c3cc4ccc([C@@H](C)N5CCCC5=O)nc4n3CC3CC3)n(C3CC3)c12` : 49.3 nM

Reported IC50 of `Cc1cc2c(cc1C(=O)N1C[C@H]3CC[C@@H]1[C@@H]3N)nc(-c1cc3ccc(N(C(F)F)S(C)(=O)=O)nc3n1CC1CC1)n2C` : 11200 nM

Reported IC50 of `COc1cc(C(=O)N2CCC[C@@H](N)C2)cc2nc(-c3cc4ccc(N(C(C)C)S(C)(=O)=O)nc4n3CC3CC3)n(C)c12` : 59.5 nM

Reported IC50 of `CCCCS(=O)(=O)N(C)c1ccc2cc(-c3nc4cc(C(=O)N5CCC[C@@H](N)C5)cc(OC)c4n3C)n(CC3CC3)c2n1` : 249 nM

Reported IC50 of COc1cc(C(=O)N2CCC3(CCC3N)C2)cc2nc(-c3cc4ccc(N(C(F)F)S(C)(=O)=O)nc4n3CC3CC3)n(C)c12 (stereo not drawn) : 21700 nM

Reported IC50 of `COc1cc(C(=O)N2[C@H]3CC[C@@H]2[C@H](N)C3)cc2nc(-c3cc4ccc([C@@H](C)NC(=O)C5(n6cccn6)CC5)nc4n3CC3CC3)n(C)c12` : 96.7 nM

Reported IC50 of `COc1cc(C(=O)N2C[C@H](N)CCN2C)cc2nc(-c3cc4ccc([C@@H](C)NC(=O)C56CC(Cl)(C5)C6)nc4n3CC3CC3)n(C)c12` : 105 nM

Reported IC50 of `COc1cc(C(=O)N2[C@H]3CC[C@@H]2[C@H](N)C3)cc2nc(-c3cc4cc(F)c(CCNC(=O)C56CC(F)(C5)C6)cc4n3CC3CC3)n(C)c12` : 45.8 nM

Reported IC50 of `COc1cc(C(=O)N2C[C@H](N)CCN2C)cc2nc(-c3cc4ccc([C@@H](C)NC(=O)c5c(C)ccnc5C)nc4n3CC3CC3)n(C)c12` : 80.4 nM

Reported IC50 of `CCN(c1ccc2cc(-c3nc4cc(C(=O)N5CCC[C@@H](N)C5)cc(OC)c4n3C)n(CC3CC3)c2n1)S(C)(=O)=O` : 78.6 nM

Reported IC50 of `COc1cc(C(=O)N2CCC[C@@H](N)C2)cc2nc(-c3cc4ccc([C@@H](C)NC(=O)c5ccccc5)cc4n3CC3CC3)n(C)c12` : 37.2 nM

Reported IC50 of `COc1cc(C(=O)N2C[C@H](N)CC[C@@H]2C)cc2nc(-c3cc4ccc(-c5cc6cn[nH]c6cc5C)nc4n3CC3CC3)n(C)c12` : 1330 nM

Reported IC50 of `COc1cc(C(=O)N2[C@H]3CC[C@@H]2[C@H](N)C3)cc2nc(-c3cc4ccc([C@@H](C)NS(C)(=O)=O)nc4n3CC3CC3)n(C)c12` : 52.8 nM

Reported IC50 of `COc1cc(C(=O)N2CCC[C@@H](N)C2)cc2nc(-c3cc4cc(F)c([C@@H](C)NC(=O)C56CC(F)(C5)C6)cc4n3CC3CC3)n(C)c12` : 62.8 nM

Reported IC50 of `COc1cc(C(=O)N2CCC[C@@H](N)C2)cc2nc(-c3cc4ccc(N(CC(F)F)S(C)(=O)=O)nc4n3CC3CC3)n(C)c12` : 181 nM

###

Molecular target: human PAD4 (Homo sapiens (Human), UniProt Q9UM07)
Sequence (Q9UM07 2-663): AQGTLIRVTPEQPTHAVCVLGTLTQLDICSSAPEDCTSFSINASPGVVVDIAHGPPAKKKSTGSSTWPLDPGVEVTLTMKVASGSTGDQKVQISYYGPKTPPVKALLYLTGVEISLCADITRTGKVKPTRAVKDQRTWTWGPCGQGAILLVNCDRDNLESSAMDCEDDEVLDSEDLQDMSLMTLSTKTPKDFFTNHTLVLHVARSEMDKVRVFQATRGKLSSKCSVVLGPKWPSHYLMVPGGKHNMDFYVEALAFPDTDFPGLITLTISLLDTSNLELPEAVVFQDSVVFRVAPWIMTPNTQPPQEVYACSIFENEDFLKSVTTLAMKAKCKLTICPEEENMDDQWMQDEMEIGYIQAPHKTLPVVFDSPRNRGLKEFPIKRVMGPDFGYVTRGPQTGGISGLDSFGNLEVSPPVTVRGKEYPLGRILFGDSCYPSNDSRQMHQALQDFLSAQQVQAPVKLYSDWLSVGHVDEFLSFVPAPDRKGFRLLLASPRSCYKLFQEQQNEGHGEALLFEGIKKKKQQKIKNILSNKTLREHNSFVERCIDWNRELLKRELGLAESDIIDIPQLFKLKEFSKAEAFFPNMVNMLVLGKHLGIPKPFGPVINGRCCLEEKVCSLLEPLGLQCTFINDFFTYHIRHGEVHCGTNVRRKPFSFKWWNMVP
Experiment: In Vitro PAD4 BAEE Biochemical Assay
Settings: human PAD4, BAEE substrate; 5 nM PAD4, 2 mM calcium chloride, 3 mM BAEE; geometric mean of multiple experiments
pIC50: −log10 of the molar value.
Values of pIC50 greater than or equal to 7 map to class 1; values below map to class 0.

Textbook exercise: given the entry `COc1cc(C(=O)N2[C@H]3CC[C@@H]2[C@H](N)C3)cc2nc(-c3cc4ccc([C@@H](C)NC(=O)C56CC(C#N)(C5)C6)cc4n3CC3CC3)n(C)c12` , state whether its pIC50 is greater than or equal to 7.
class 1

Textbook exercise: given the entry `COc1cc(C(=O)N2CCC[C@@H](N)C2)cc2nc(-c3cc4ccc(N5CCCN(C)S5(=O)=O)nc4n3CC3CC3)n(C)c12` , state whether its pIC50 is greater than or equal to 7.
class 0

Textbook exercise: given the entry `COc1cc(C(=O)N2CC3(CCCN3)C2)cc2nc(-c3cc4ccc(N(C(F)F)S(C)(=O)=O)nc4n3CC3CC3)n(C)c12` , state whether its pIC50 is greater than or equal to 7.
class 0

Textbook exercise: given the entry `COc1cc(C(=O)N2CCC[C@@H](N)C2)cc2nc(-c3cc4ccc(S(=O)(=O)C(C)C)nc4n3CC3CC3)n(C)c12` , state whether its pIC50 is greater than or equal to 7.
class 0

###

Molecular target: human PAD4 (Homo sapiens (Human), UniProt Q9UM07)
Assay: In Vitro PAD4 BAEE Biochemical Assay
Settings: human PAD4, BAEE substrate; 5 nM PAD4, 2 mM calcium chloride, 3 mM BAEE; geometric mean of multiple experiments
From the text: The PCR product was ligated into linearized pET-SUMO vector (Invitrogen, Carlsbad, CA), which is part of the Champion™ pET SUMO Protein Expression System. […] The enzymatic activity of human PAD4 was monitored in a biochemical assay in the presence or absence of compounds using the small peptidyl arginine mimic BAEE (Nα-Benzoyl-L-arginine ethyl ester hydrochloride) as substrate. […] Levels of ammonia were monitored by using an amine coupling reaction and were indicative of PAD4 enzymatic activity. […]
Metric Name: pIC50
Please report pIC50 as the negative decimal logarithm of the molar concentration, giving only the number.

Reported pIC50 of `COc1cc(C(=O)N2C[C@H](N)CCN2C)cc2nc(-c3cc4ccc([C@@H](C)NC(=O)C5(c6ccccc6)CC5)nc4n3CC3CC3)n(C)c12` : 6.32

Reported pIC50 of `COc1cc(C(=O)N2C[C@H](N)[C@@H]3CC[C@H]2C3)cc2nc(-c3cc4ccc([C@@H](C)NC(=O)c5ccc(Cl)nc5)nc4n3CC3CC3)n(C)c12` : 7.32

Reported pIC50 of `COc1cc(C(=O)N2CCC[C@@H](N)C2)cc2nc(-c3cc4ccc(N5[C@@H](C)CCCS5(=O)=O)nc4n3CC3CC3)n(C3CC3)c12` : 7.36

Reported pIC50 of `C[C@@H](NC(=O)N(C)C)c1ccc2cc(-c3nc4cc(C(=O)N[C@H]5CNCC[C@@H]5F)c(F)cc4n3C)n(CC3CC3)c2n1` : 6.78

Reported pIC50 of `COc1cc(C(=O)N2[C@H]3CC[C@@H]2[C@H](N)C3)cc2nc(-c3cc4ccc([C@@H](C)NC(=O)C5CC(F)(F)C5)nc4n3CC3CC3)n(C)c12` : 7.32

Reported pIC50 of `COc1cc(C(=O)N2C[C@H](N)CC[C@@H]2C)cc2nc(-c3cc4ccc(-c5c(C)ccnc5-c5sc(C)nc5C)nc4n3CC3CC3)n(C)c12` : 6.49

Reported pIC50 of `COc1cc(C(=O)N2C[C@H]3CC[C@@H]2[C@@H]3N)cc2nc(-c3cc4ccc(N5[C@@H](C)CCCS5(=O)=O)nc4n3CC3CC3)n(C)c12` : 7.10

Reported pIC50 of CCN(C(=O)OC)c1ccc2cc(-c3nc4cc(C(=O)N5CCC[C@@H](N)C5)ccc4n3C3CC3)n(CC3CC3)c2n1 [Example 112] : 5.29

Reported pIC50 of `C[C@H]1CCCS(=O)(=O)N1c1ccc2cc(-c3nc4cc(C(=O)N5C[C@H]6CC[C@@H]5[C@@H]6N)ccc4n3C3CC3)n(CC3CC3)c2n1` : 7.26

Reported pIC50 of `COc1cc(C(=O)N2CC3(CCNC3)C2)cc2nc(-c3cc4ccc(N(C(F)F)S(C)(=O)=O)nc4n3CC3CC3)n(C)c12` : 5.29

Reported pIC50 of COc1cc(C(=O)N2CCCC(C)(N)C2)cc2nc(-c3cc4ccc(N(C(F)F)S(C)(=O)=O)nc4n3CC3CC3)n(C)c12 (stereo not drawn) : 4.90

Reported pIC50 of `CCS(=O)(=O)N(C)c1ccc2cc(-c3nc4cc(C(=O)N5CCC[C@@H](N)C5)cc(OC)c4n3C)n(CC3CC3)c2n1` : 6.79

Hey, just so you know, these numbers are from patent US11878965B2.
